# subject_of_test: CyclinB1/CDK1 (Homo sapiens, UniProt P14635)
# Construct: purchased Eurofins, discovery 14-450
# protocol_summary: Fluorescence Polarization (FP) competitive binding assay, Cyclin B1/Cdk1;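 also: fluorescence polarization read after equilibration at room temperature, with IC50 taken from serially diluted dose-response curves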
# condition_context: read-out: Cyclin B FP IC50; 10 nM Cyclin B1/Cdk1, 2 nM FAM probe; average of 2-3 independent experiments
*1 amine or outer side, *2 acyl side, *3 side chain or, on linkers, in order; H or OH if unused. Where a SMILES comes first, the peptide text is derived from it. Bridges are numbered along the chain shown (N, C = ends). [ ]: non-standard residue; d: D form. The star is where a group is joined. X127 = CN([C@@H](Cc1cc(F)ccc1-c1cnn(S(=O)(=O)C2CC2)c1)C(=O)[*:2])[*:1]; NMe3Pal(2-OiBu,5-Cl) = CN[C@@H](Cc1cc(Cl)cnc1OCC(C)C)C(=O)O; NMehhhLys(Me) = CN([C@@H](CCCCCCCN(C)[*:3])C(=O)[*:2])[*:1]; X135 = CN([C@@H](Cc1cc(Cl)ccc1-c1cn(C)cn1)C(=O)[*:2])[*:1]; Cyclobutanecarbonyl(1-CF3) = O=C(C1(C(F)(F)F)CCC1)*; cBuCO(3,3-F2-1-CF3) = O=C(C1(C(F)(F)F)CC(F)(F)C1)*; Pro(trans-4-F) = O=C(O)[C@@H]1C[C@@H](F)CN1; Gly(cPr) = N[C@H](C(=O)O)C1CC1
Entries and their measured pIC50 follow.
Scale for pIC50: -log10 of concentration given in mol/L; no unit attached.

1) CC(C)C[C@@H]1NC(=O)[C@@H](N(C)C(=O)[C@@H](NC(=O)[C@@H]2C[C@@H](F)CN2C(=O)C2(C(F)(F)F)CC(F)(F)C2)C2CC2)CCCCCCCN(C)C(=O)[C@H](Cc2cc(Cl)ccc2-c2cn(C)cn2)N(C)C1=O [Example 242] ({cBuCO(3,3-F2-1-CF3)}-[Pro(trans-4-F)][Gly(cPr)][NMehhhLys(Me)]L[X135]; lactam 3-C)
7.70
2) CC(C)C[C@@H]1NC(=O)[C@@H](N(C)C(=O)[C@@H](NC(=O)[C@@H]2C[C@@H](F)CN2C(=O)C2(C(F)(F)F)CC(F)(F)C2)C2CC2)CCCCCCCN(C)C(=O)[C@H](Cc2cc(F)ccc2-c2cnn(S(=O)(=O)C3CC3)c2)N(C)C1=O [Example 252] ({cBuCO(3,3-F2-1-CF3)}-[Pro(trans-4-F)][Gly(cPr)][NMehhhLys(Me)]L[X127]; lactam 3-C)
7.70

# evaluate next
INPUT: Provide the reported pIC50 (system: CyclinB1/CDK1 (Homo sapiens, UniProt P14635)) for CC(C)COc1ncc(Cl)cc1C[C@H]1C(=O)N(C)CCCCCCC[C@H](N(C)C(=O)[C@@H](NC(=O)[C@@H]2C[C@@H](F)CN2C(=O)C2(C(F)(F)F)CCC2)C2CC2)C(=O)N[C@@H](CC(C)C)C(=O)N1C [Example 230] ({Cyclobutanecarbonyl(1-CF3)}-[Pro(trans-4-F)][Gly(cPr)][NMehhhLys(Me)]L[NMe3Pal(2-OiBu,5-Cl)]; lactam 3-C)
OUTPUT: 7.70

* * *

# System: NCI-H1048 cells
# protocol_summary: MTT proliferation assay, NCI-H1048;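 also: Dose-response in 96-well plates over 8 or 10 concentration points, with exposure spanning 3-4 cell doublings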
# Format: cell-based
# condition_context: 5 days compound exposure, 1:3 serial dilution starting at 10 μM
*1 amine or outer side, *2 acyl side, *3 side chain or, on linkers, in order; H or OH if unused. Where a SMILES comes first, the peptide text is derived from it. Bridges are numbered along the chain shown (N, C = ends). [ ]: non-standard residue; d: D form. The star is where a group is joined. NMePhe(2-(4-MorPh),5-Cl) = CN[C@@H](Cc1cc(Cl)ccc1-c1ccc(N2CCOCC2)cc1)C(=O)O; X84 = CC(=O)N1CCC(c2ccc(Cl)cc2C[C@@H](C(=O)[*:2])N(C)[*:1])CC1; X183 = CN([C@@H](Cc1cc(Cl)ccc1-c1ccc2nncn2c1)C(=O)[*:2])[*:1]; X54 = CN([C@@H](Cc1cc(F)ccc1-c1cnn(C2CCC2)c1)C(=O)[*:2])[*:1]; NMe3Pal(2-OiBu,5-Cl) = CN[C@@H](Cc1cc(Cl)cnc1OCC(C)C)C(=O)O; NMehhhLys(Me) = CN([C@@H](CCCCCCCN(C)[*:3])C(=O)[*:2])[*:1]; Oxane2carbonyl(2R-CF3) = O=C([C@@]1(C(F)(F)F)CCCCO1)*; X213 = CN([C@@H](Cc1cc(Cl)cc2c1cnn2C)C(=O)[*:2])[*:1]; cBuCO(3,3-F2-1-CF3) = O=C(C1(C(F)(F)F)CC(F)(F)C1)*; Pro(trans-4-F) = O=C(O)[C@@H]1C[C@@H](F)CN1; Gly(cPr) = N[C@H](C(=O)O)C1CC1; X9 = C[C@@]1(C(=O)*)CC1(F)F
measure: GI50
Number first, unit second: that is the form wanted.

Solved entries:
1) CC(C)COc1ncc(Cl)cc1C[C@H]1C(=O)N(C)CCCCCCC[C@H](N(C)C(=O)[C@@H](NC(=O)[C@@H]2C[C@@H](F)CN2C(=O)[C@@]2(C(F)(F)F)CCCCO2)C2CC2)C(=O)N[C@@H](CC(C)C)C(=O)N1C [Example 229] ({Oxane2carbonyl(2R-CF3)}-[Pro(trans-4-F)][Gly(cPr)][NMehhhLys(Me)]L[NMe3Pal(2-OiBu,5-Cl)]; lactam 3-C)
10 nM
2) CC(C)C[C@@H]1NC(=O)[C@@H](N(C)C(=O)[C@@H](NC(=O)[C@@H]2C[C@@H](F)CN2C(=O)[C@]2(C)CC2(F)F)C2CC2)CCCCCCCN(C)C(=O)[C@H](Cc2cc(Cl)ccc2-c2ccc(N3CCOCC3)cc2)N(C)C1=O [Example 399] (X9-[Pro(trans-4-F)][Gly(cPr)][NMehhhLys(Me)]L[NMePhe(2-(4-MorPh),5-Cl)]; lactam 3-C)
220 nM
3) CC(=O)N1CCC(c2ccc(Cl)cc2C[C@H]2C(=O)N(C)CCCCCCC[C@H](N(C)C(=O)[C@@H](NC(=O)[C@@H]3C[C@@H](F)CN3C(=O)C3(C(F)(F)F)CC(F)(F)C3)C3CC3)C(=O)N[C@@H](CC(C)C)C(=O)N2C)CC1 [Example 52] ({cBuCO(3,3-F2-1-CF3)}-[Pro(trans-4-F)][Gly(cPr)][NMehhhLys(Me)]L[X84]; lactam 3-C)
10 nM

INPUT: Using the record for CC(C)C[C@@H]1NC(=O)[C@@H](N(C)C(=O)[C@@H](NC(=O)[C@@H]2C[C@@H](F)CN2C(=O)C2(C(F)(F)F)CC(F)(F)C2)C2CC2)CCCCCCCN(C)C(=O)[C@H](Cc2cc(F)ccc2-c2cnn(C3CCC3)c2)N(C)C1=O [Example 96] ({cBuCO(3,3-F2-1-CF3)}-[Pro(trans-4-F)][Gly(cPr)][NMehhhLys(Me)]L[X54]; lactam 3-C) , state its measured GI50.
OUTPUT: 10 nM

INPUT: Indicate the recorded GI50 value for this compound: CC(C)C[C@@H]1NC(=O)[C@@H](N(C)C(=O)[C@@H](NC(=O)[C@@H]2C[C@@H](F)CN2C(=O)C2(C(F)(F)F)CC(F)(F)C2)C2CC2)CCCCCCCN(C)C(=O)[C@H](Cc2cc(Cl)ccc2-c2ccc3nncn3c2)N(C)C1=O [Example 178] ({cBuCO(3,3-F2-1-CF3)}-[Pro(trans-4-F)][Gly(cPr)][NMehhhLys(Me)]L[X183]; lactam 3-C)
OUTPUT: 1180 nM

INPUT: Return GI50 (reported value) for this compound: CC(C)C[C@@H]1NC(=O)[C@@H](N(C)C(=O)[C@@H](NC(=O)[C@@H]2C[C@@H](F)CN2C(=O)C2(C(F)(F)F)CC(F)(F)C2)C2CC2)CCCCCCCN(C)C(=O)[C@H](Cc2cc(Cl)cc3c2cnn3C)N(C)C1=O [Example 424] ({cBuCO(3,3-F2-1-CF3)}-[Pro(trans-4-F)][Gly(cPr)][NMehhhLys(Me)]L[X213]; lactam 3-C)
OUTPUT: 2510 nM
